- target-under-test: ScHof1
- test-protocol: SPOT peptide array binding signal intensity (averaged, normalized) (arbitrary units (background-subtracted, floor 0; scale differs between SH3 domains)); higher = stronger binding of the SH3 domain to the peptide
measurement-type: SPOT peptide array binding signal intensity

Worked cases, SPOT peptide array binding signal intensity given:
SSTPTTPERPKRKSG ≤ 0
PHNPSPFFPPPDFND 0.25

*Q* Entry under review: "APPLPPTAPPPPSLP" . Reported SPOT peptide array binding signal intensity?
*A* 212

*Q* Name the reported SPOT peptide array binding signal intensity value associated with the binder "SGVRLPAPPPPPRRG"
*A* 482

*Q* Given the entry "DRIRMFIRFPKFLLE" , report its measured SPOT peptide array binding signal intensity.
*A* 1.25

*Q* Dear colleague, I am looking for the recorded SPOT peptide array binding signal intensity of the following binder: "LRIKRKPVQTFFEFI"
*A* 5.5

*Q* Name the reported SPOT peptide array binding signal intensity value associated with the binder "HAPPLPPTAPPPPSL"
*A* 40.5

*Q* Need SPOT peptide array binding signal intensity of "AVPPPPPPPPLPESL" , thanks.
*A* 13.5
